Molecular target: CCR4 receptor (Homo sapiens)
Construct: cDNA fragments of receptor open reading frame were respectively inserted into pcDI; expressed in transfected cells; host or cells: HEK293 cells, transiently transfected by electroporation with pCDI-CCR4
Sequence (P51679 1-360): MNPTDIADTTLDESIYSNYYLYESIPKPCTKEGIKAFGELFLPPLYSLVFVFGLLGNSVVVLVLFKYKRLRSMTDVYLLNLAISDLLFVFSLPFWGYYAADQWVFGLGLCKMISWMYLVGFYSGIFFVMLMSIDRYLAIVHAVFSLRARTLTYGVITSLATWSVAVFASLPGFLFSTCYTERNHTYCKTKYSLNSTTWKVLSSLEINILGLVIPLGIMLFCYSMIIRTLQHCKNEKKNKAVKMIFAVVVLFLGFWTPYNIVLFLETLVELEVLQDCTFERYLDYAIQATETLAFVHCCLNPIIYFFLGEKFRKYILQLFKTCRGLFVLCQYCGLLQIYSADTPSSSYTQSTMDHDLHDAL
Experiment: Inhibition of MDC/TARC/C27 mediated chemotactic response of CCR4-transfected HEK293 cells (Boyden chamber)
Format: cell-based
Details: chemotactic inhibition rate; chemokine C27 10 ng/mL; compound 1 μM; HEK293 cells transfected with pCDI-CCR4; 5 hours; read-out: C27 inhibition rate
From the text: Whether or not compounds 1-14 of the present invention can inhibit MDC (Peprotech) mediated chemotactic response of HEK293 cells was studied by using Boyden chamber (Neuro Probe, Inc.). 1. Construction of Receptor Expression Plasmid: cDNA fragments including human chemokine receptor open reading frame were obtained by the following method: CCR4 receptor was cloned from a cDNA library of K562 cells through polymerase chain reaction (PCR). […]
test_readout: inhibition at 1 µM (%)

Worked cases, answers included:
1) CCC(=O)N1CCN(c2nc(NCc3ccc(Cl)cc3Cl)c3cccnc3n2)CC1: 38.3
2) O=C([C@H]1CCCCN1)N1CCN(c2nc(Cl)cc(NCc3ccc(Cl)cc3Cl)n2)CC1: 69.8
3) COCCN(CCOC)c1cc(NCc2ccc(Cl)cc2Cl)nc(N2CCN(C(=O)C(C)C)CC2)n1: 40.1

[a] CC(C)C(=O)N1CCN(c2nc(NCc3ccc(Cl)cc3Cl)c3cccnc3n2)CC1
[b] CCCN1CCN(c2nc(NCc3ccc(Cl)cc3Cl)c3cccnc3n2)CC1
[c] COCCN(CCOC)c1cc(NCc2ccc(Cl)cc2Cl)nc(N2CCN(C(=O)CCSC)CC2)n1
[ask] Order the entries by their reported inhibition at 1 µM, beginning at the minimum. Would you mind listing the labels in the order asked for?
[reply] b, a, c
(b: 16.7%, a: 35.2%, c: 51.2%)

---

Biological target: CCR4 receptor (Homo sapiens, UniProt P51679)
Construct: cDNA fragments of receptor open reading frame were respectively inserted into pcDI; expressed in transfected cells; host or cells: HEK293 cells, transiently transfected by electroporation with pCDI-CCR4
Sequence (P51679 1-360): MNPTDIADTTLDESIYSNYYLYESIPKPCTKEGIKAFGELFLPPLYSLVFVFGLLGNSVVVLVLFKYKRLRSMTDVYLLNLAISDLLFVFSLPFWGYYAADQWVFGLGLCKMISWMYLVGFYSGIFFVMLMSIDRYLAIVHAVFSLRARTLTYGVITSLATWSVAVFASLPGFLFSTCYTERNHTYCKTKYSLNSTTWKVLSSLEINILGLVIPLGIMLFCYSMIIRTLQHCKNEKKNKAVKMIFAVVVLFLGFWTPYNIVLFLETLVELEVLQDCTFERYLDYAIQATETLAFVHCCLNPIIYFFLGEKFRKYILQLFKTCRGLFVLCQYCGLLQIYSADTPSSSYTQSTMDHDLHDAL
Assay: Inhibition of MDC/TARC/C27 mediated chemotactic response of CCR4-transfected HEK293 cells (Boyden chamber)
Assay type: cell-based
Settings: chemotactic inhibition rate; chemokine TARC 10 ng/mL; compound 1 μM; HEK293 cells transfected with pCDI-CCR4; 5 hours; read-out: TARC inhibition rate
Description: Whether or not compounds 1-14 of the present invention can inhibit MDC (Peprotech) mediated chemotactic response of HEK293 cells was studied by using Boyden chamber (Neuro Probe, Inc.). 1. Construction of Receptor Expression Plasmid: cDNA fragments including human chemokine receptor open reading frame were obtained by the following method: CCR4 receptor was cloned from a cDNA library of K562 cells through polymerase chain reaction (PCR). […]
test_readout: inhibition at 1 µM (%)

1. CC(C)C(=O)N1CCN(c2nc(NCc3ccc(Cl)cc3Cl)c3cccnc3n2)CC1: 61.4
2. CCC(=O)N1CCN(c2nc(NCc3ccc(Cl)cc3Cl)c3cccnc3n2)CC1: 59.8
3. O=C([C@H]1CCCCN1)N1CCN(c2nc(Cl)cc(NCc3ccc(Cl)cc3Cl)n2)CC1: 60.4
4. CCCN1CCN(c2nc(NCc3ccc(Cl)cc3Cl)c3cccnc3n2)CC1: 35.2
5. COCCN(CCOC)c1cc(NCc2ccc(Cl)cc2Cl)nc(N2CCN(C(=O)CCSC)CC2)n1: 55.7

[I] O=C(C1CCCCC1)N1CCN(c2nc(NCc3ccc(Cl)cc3Cl)c3cccnc3n2)CC1
[II] COC(CN(C)c1cc(NCc2ccc(Cl)cc2Cl)nc(N2CCN(C(=O)C(C)C)CC2)n1)OC
[III] O=C([C@@H]1CSCCN1)N1CCN(c2nc(Cl)cc(NCc3ccc(Cl)cc3Cl)n2)CC1
[ask] Order the records by inhibition at 1 µM, with each subsequent value no larger than the one before. Would you mind listing the labels in the order asked for?
[reply] I, II, III

---

Target: CCR4 receptor (Homo sapiens, UniProt P51679)
Construct: cDNA fragments of receptor open reading frame were respectively inserted into pcDI; expressed in transfected cells; host or cells: HEK293 cells, transiently transfected by electroporation with pCDI-CCR4
Assay: Inhibition of MDC/TARC/C27 mediated chemotactic response of CCR4-transfected HEK293 cells (Boyden chamber)
Assay type: cell-based
Conditions: chemotactic inhibition rate; chemokine C27 10 ng/mL; compound 1 μM; HEK293 cells transfected with pCDI-CCR4; 5 hours; read-out: C27 inhibition rate
test_readout: inhibition at 1 µM (%)

1. COC(CN(C)c1cc(NCc2ccc(Cl)cc2Cl)nc(N2CCN(C(=O)CCSC)CC2)n1)OC: 43.9

[I] COCCN(CCOC)c1cc(NCc2ccc(Cl)cc2Cl)nc(N2CCN(C(=O)C3CCCCC3)CC2)n1
[II] O=C(C1CCCCC1)N1CCN(c2nc(NCc3ccc(Cl)cc3Cl)c3cccnc3n2)CC1
[ask] Which one would you say has the larger inhibition at 1 µM value: I , or II ? Refer to your chosen entry by its label in the reply.
[reply] I
(I: 37.9%, II: 6.17%)

---

Biological target: CCR4 receptor (Homo sapiens)
Construct: cDNA fragments of receptor open reading frame were respectively inserted into pcDI; expressed in transfected cells; host or cells: HEK293 cells, transiently transfected by electroporation with pCDI-CCR4
Test: Inhibition of MDC/TARC/C27 mediated chemotactic response of CCR4-transfected HEK293 cells (Boyden chamber)
Assay type: cell-based
Conditions: chemotactic inhibition rate; chemokine TARC 10 ng/mL; compound 1 μM; HEK293 cells transfected with pCDI-CCR4; 5 hours; read-out: TARC inhibition rate
test_readout: inhibition at 1 µM (%)

Worked cases, answers included:
1. COC(CN(C)c1cc(NCc2ccc(Cl)cc2Cl)nc(N2CCN(C(=O)CCSC)CC2)n1)OC: 58.3
2. COCCN(CCOC)c1cc(NCc2ccc(Cl)cc2Cl)nc(N2CCN(C(=O)C3CCCCC3)CC2)n1: 51

[a] COCCN(CCOC)c1cc(NCc2ccc(Cl)cc2Cl)nc(N2CCN(C(=O)C(C)C)CC2)n1
[b] O=C([C@@H]1CSCCN1)N1CCN(c2nc(NCc3ccc(Cl)cc3Cl)c3cccnc3n2)CC1
[ask] Which one would you say has the larger inhibition at 1 µM value: a , or b ? Refer to your chosen entry by its label in the reply.
[reply] b

---

Biological target: CCR4 receptor (Homo sapiens)
Construct: cDNA fragments of receptor open reading frame were respectively inserted into pcDI; expressed in transfected cells; host or cells: HEK293 cells, transiently transfected by electroporation with pCDI-CCR4
Sequence (P51679 1-360): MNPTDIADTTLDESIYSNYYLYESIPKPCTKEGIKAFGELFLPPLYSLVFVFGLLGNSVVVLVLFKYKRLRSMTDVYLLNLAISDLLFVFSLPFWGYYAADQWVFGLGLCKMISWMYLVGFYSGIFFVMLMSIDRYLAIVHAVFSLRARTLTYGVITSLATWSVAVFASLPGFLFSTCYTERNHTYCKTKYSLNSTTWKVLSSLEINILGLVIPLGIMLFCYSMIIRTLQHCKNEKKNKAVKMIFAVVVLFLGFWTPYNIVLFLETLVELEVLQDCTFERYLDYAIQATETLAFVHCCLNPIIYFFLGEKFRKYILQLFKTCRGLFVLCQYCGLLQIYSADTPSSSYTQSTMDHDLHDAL
Experiment: Inhibition of MDC/TARC/C27 mediated chemotactic response of CCR4-transfected HEK293 cells (Boyden chamber)
Assay type: cell-based
Conditions: chemotactic inhibition rate; chemokine C27 10 ng/mL; compound 1 μM; HEK293 cells transfected with pCDI-CCR4; 5 hours; read-out: C27 inhibition rate
test_readout: inhibition at 1 µM (%)

1) COC(CN(C)c1cc(NCc2ccc(Cl)cc2Cl)nc(N2CCN(C(=O)C(C)C)CC2)n1)OC [Compound 2]: 39
2) O=C([C@@H]1CSCCN1)N1CCN(c2nc(Cl)cc(NCc3ccc(Cl)cc3Cl)n2)CC1 [Compound 9]: 39.5
3) CCC(=O)N1CCN(c2nc(NCc3ccc(Cl)cc3Cl)cc(N(CCOC)CCOC)n2)CC1 [Compound 4]: 34.6
